Source: patent US8883963B2

Quick reference for Human GLP-1 R activity (cAMP release), % activity with respect to control among some compounds
# SYSTEM TESTED: Human GLP-1 receptor (Homo sapiens)
# Construct: The full-length cDNA was cloned in pcDNA3.1(+); expressed in transfected cells
# Sequence (P43220 24-463): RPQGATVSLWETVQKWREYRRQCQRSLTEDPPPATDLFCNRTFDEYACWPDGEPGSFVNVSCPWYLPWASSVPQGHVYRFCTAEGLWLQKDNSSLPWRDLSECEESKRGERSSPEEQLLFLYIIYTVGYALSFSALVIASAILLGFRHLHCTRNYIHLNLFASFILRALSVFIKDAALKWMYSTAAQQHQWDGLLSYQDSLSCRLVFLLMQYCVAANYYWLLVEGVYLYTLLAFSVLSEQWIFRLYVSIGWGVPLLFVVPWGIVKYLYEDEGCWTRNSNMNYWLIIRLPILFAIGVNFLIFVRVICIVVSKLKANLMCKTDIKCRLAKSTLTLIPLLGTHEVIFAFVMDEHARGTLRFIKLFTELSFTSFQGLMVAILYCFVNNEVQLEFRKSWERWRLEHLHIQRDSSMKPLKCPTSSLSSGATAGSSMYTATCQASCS
# ASSAY OVERVIEW: In vitro Human GLP-1 R agonist activity (cyclic AMP determination) in CHO/human GLP1R cells
# Assay type: cell-based
# MEASUREMENT CONDITIONS: 1 μM test compound
Number only, in %; omit the unit.

COMPOUND: CCc1cc(OC)ccc1-c1ccc(CC(NC(=O)[C@H](CC(=O)O)NC(=O)[C@H](CO)NC(=O)[C@@H](NC(=O)[C@H](Cc2ccccc2)NC(=O)[C@@H](NC(=O)CNC(=O)C(CCC#N)NC(=O)C(C)(C)NC(=O)[C@@H](N)Cc2c[nH]cn2)[C@@H](C)O)[C@@H](C)O)C(=O)NC(CCCc2cc(C)cc(C)c2)C(N)=O)cc1 (single isomer, unassigned)
UNITS LABEL: %
REPORTED VALUE: 95
--
COMPOUND: CCc1cc(OC)ccc1-c1ccc(CC(NC(=O)[C@H](CC(=O)O)NC(=O)[C@H](CO)NC(=O)[C@@H](NC(=O)[C@H](Cc2ccccc2)NC(=O)[C@@H](NC(=O)CNC(=O)C(CCC#N)NC(=O)C(C)(C)NC(=O)[C@@H](N)Cc2c[nH]cn2)[C@@H](C)O)[C@@H](C)O)C(=O)NC(CCCc2ccc(Cl)cc2C)C(N)=O)cc1 (single isomer, unassigned)
UNITS LABEL: %
REPORTED VALUE: 96

Let us move to another entry and its Human GLP-1 R activity (cAMP release), % activity with respect to control.
Human GLP-1 R activity (cAMP release), % activity with respect to control for CCc1cc(OC)ccc1-c1ccc(CC(CNC(CCCc2ccccc2)C(N)=O)NC[C@H](CC(=O)O)NC(=O)[C@H](CO)NC(=O)[C@@H](NC(=O)C(C)(Cc2ccccc2F)NC(=O)[C@@H](NC(=O)CNC(=O)[C@H](CCC(N)=O)NC(=O)C(C)(C)NC(=O)[C@H](Cc2c[nH]cn2)NC(=O)OC)[C@@H](C)O)[C@@H](C)O)cc1 (single isomer, unassigned) is 94

###

half-life at 2 μM: recorded values
# ASSAY OVERVIEW: Stability in simulated gastric fluid
# Assay type: in vitro ADME
# MEASUREMENT CONDITIONS: 2 μM peptidomimetic, simulated gastric fluid pH 1.5, 37° C.; read-out: half-life (t1/2) when incubated with simulated gastric fluid
Starred links: 1 amine or outer side, 2 acyl side, 3 side chain; linkers in the order of their positions; H or OH if unused. Non-standard residues stand in square brackets, D forms with d. Residues, ends and D or L forms follow the SMILES beside them. ξ: configuration not given here. ξBip(2'-Et-4'-OMe) = CCc1cc(OC)ccc1-c1ccc(CC(N)C(=O)O)cc1; X2 = O=C(C(CCCc1ccccc1Cl)N[*:1])[*:2]; Ac3c = NC1(C(=O)O)CC1
// units = h; emit number, no label

MOLECULE: CCc1cc(OC)ccc1-c1ccc(CC(NC(=O)[C@H](CC(=O)O)NC(=O)[C@H](CO)NC(=O)[C@@H](NC(=O)[C@H](Cc2ccccc2)NC(=O)[C@@H](NC(=O)CNC(=O)[C@H](CCC(N)=O)NC(=O)[C@H](CO)NC(=O)[C@@H](N)Cc2c[nH]cn2)[C@@H](C)O)[C@@H](C)O)C(=O)NC(CCCc2ccccc2F)C(N)=O)cc1 (single isomer, unassigned)
UNITS LABEL: h
half-life at 2 μM: 0.5
--
MOLECULE: CCc1cc(OC)ccc1-c1ccc(CC(NC(=O)[C@H](CC(=O)O)NC(=O)[C@H](CO)NC(=O)[C@@H](NC(=O)C(C)(Cc2ccccc2F)NC(=O)[C@@H](NC(=O)CNC(=O)C(CCC#N)NC(=O)C(C)(C)NC(=O)[C@@H](N)Cc2c[nH]cn2)[C@H](C)O)[C@@H](C)O)C(=O)NC(CCCc2ccccc2)C(N)=O)cc1 (single isomer, unassigned)
UNITS LABEL: h
half-life at 2 μM: 4
--
MOLECULE: CCc1cc(OC)ccc1-c1ccc(CC(NC(=O)[C@H](CC(=O)O)NC(=O)[C@H](CO)NC(=O)[C@@H](NC(=O)C(C)(Cc2ccccc2F)NC(=O)[C@@H](NC(=O)CNC(=O)[C@H](CC(C(F)(F)F)C(F)(F)F)NC(=O)C(C)(C)NC(=O)[C@@H](N)Cc2c[nH]cn2)[C@@H](C)O)[C@@H](C)O)C(=O)NC(CCCc2ccccc2)C(N)=O)cc1 (some centres unmarked)
UNITS LABEL: h
half-life at 2 μM: 0.5

For reference, reported half-life at 2 μM for CCc1cc(OC)ccc1-c1ccc(CC(NC(=O)[C@H](CC(=O)O)NC(=O)[C@H](CO)NC(=O)[C@@H](NC(=O)C(C)(Cc2ccccc2F)NC(=O)[C@@H](NC(=O)CNC(=O)[C@H](CC(C(F)(F)F)C(F)(F)F)NC(=O)C(C)(C)NC(=O)[C@@H](N)Cc2c[nH]cn2)[C@H](C)O)[C@@H](C)O)C(=O)NC(CCCc2ccccc2)C(N)=O)cc1 (some centres unmarked) stands at 0.5

get_value(item= CCc1cc(OC)ccc1-c1ccc(CC(NC(=O)[C@H](CC(=O)O)NC(=O)[C@H](CO)NC(=O)[C@@H](NC(=O)[C@H](Cc2ccccc2)NC(=O)[C@@H](NC(=O)CNC(=O)C(CCC#N)NC(=O)C(C)(C)NC(=O)[C@@H](N)Cc2c[nH]cn2)[C@@H](C)O)[C@@H](C)O)C(=O)NC(CCCc2ccccc2Cl)C(N)=O)cc1 (single isomer, unassigned) , readout=half-life at 2 μM) returns 4

Value of measured half-life at 2 μM for the entry CCc1cc(OC)ccc1-c1ccc(CC(NC(=O)[C@H](CC(=O)O)NC(=O)[C@H](CO)NC(=O)[C@@H](NC(=O)C(C)(Cc2ccccc2F)NC(=O)[C@@H](NC(=O)CNC(=O)C(CCC#N)NC(=O)C(C)(C)NC(=O)[C@@H](N)Cc2c[nH]cn2)[C@H](C)O)[C@H](C)O)C(=O)NC(CCCc2ccccc2F)C(N)=O)cc1 (single isomer, unassigned) : 4

Entry CCc1cc(OC)ccc1-c1ccc(CC(NC(=O)[C@H](CC(=O)O)NC(=O)[C@H](CO)NC(=O)[C@@H](NC(=O)[C@H](Cc2ccccc2)NC(=O)[C@@H](NC(=O)CNC(=O)[C@H](CCC(N)=O)NC(=O)C2(NC(=O)[C@@H](N)Cc3c[nH]cn3)CC2)[C@@H](C)O)[C@@H](C)O)C(=O)NC(CCCc2ccccc2Cl)C(N)=O)cc1 (some centres unmarked) [compound 74] (H-H[Ac3c]QGTFTSD[ξBip(2'-Et-4'-OMe)][X2]-NH2) — recorded half-life at 2 μM = 0.5
